The reader will find Kd measurements below, all made with BCL-w (Homo sapiens).
Sequence (Q92843 whole entry, species assumed): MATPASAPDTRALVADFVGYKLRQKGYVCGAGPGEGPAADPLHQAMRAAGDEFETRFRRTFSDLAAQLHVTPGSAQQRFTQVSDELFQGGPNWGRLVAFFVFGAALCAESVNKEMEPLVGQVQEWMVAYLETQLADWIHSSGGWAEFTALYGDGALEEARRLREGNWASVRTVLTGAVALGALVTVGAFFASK

Given CC(C)OP(=O)(CN1CCN(CC[C@H](CSc2ccccc2)Nc2ccc(S(=O)(=O)NC(=O)c3ccc(N4CCN(CC5=C(c6ccc(Cl)cc6)CCC(C)(C)C5)CC4)cc3)cc2S(=O)(=O)C(F)(F)F)CC1)OC(C)C , respond with its Kd.
10 to 50 nM

Given CCOP(=O)(O)CC1CCN(CC[C@H](CSc2ccccc2)Nc2ccc(S(=O)(=O)NC(=O)c3ccc(N4CCN(CC5=C(c6ccc(Cl)cc6)CCC(C)(C)C5)CC4)cc3)cc2S(=O)(=O)C(F)(F)F)CC1 , respond with its Kd.
1 to 10 nM

Given CCOP(=O)(CN1CCN(CC(CSc2ccccc2)Nc2ccc(S(=O)(=O)NC(=O)c3ccc(N4CCN(CC5=C(c6ccc(Cl)cc6)CCC(C)(C)C5)CC4)cc3)cc2S(=O)(=O)C(F)(F)F)CC1)OCC (stereo not shown) , respond with its Kd.
> 50 nM

Given CCOP(=O)(CN1CCN(CC[C@H](C[S+]([O-])c2ccccc2)Nc2ccc(S(=O)(=O)NC(=O)c3ccc(N4CCN(CC5=C(c6ccc(Cl)cc6)CCC(C)(C)C5)CC4)cc3)cc2S(=O)(=O)C(F)(F)F)CC1)OCC (stereo partly shown) , respond with its Kd.
10 to 50 nM

* * *

system: IMR-90 SnC (irradiated senescent IMR90 cells); test: Senolysis assay (CellTiter-Glo viability); format: cell-based, human; details: Homo sapiens, IMR-90, light or radiation study, 72 h; X-ray irradiated senescent IMR90 cells, viability three days after compound addition
Measured parameter: EC50

Given CCOP(=O)(CCCN1CCN(CC[C@H](CSc2ccccc2)Nc2ccc(S(=O)(=O)NC(=O)c3ccc(N4CCN(CC5=C(c6ccc(Cl)cc6)CCC(C)(C)C5)CC4)cc3)cc2S(=O)(=O)C(F)(F)F)CC1)OCOC(C)=O (some centres unmarked) , respond with its EC50.
1 to 10 µM

Given CC1(C)CCC(c2ccc(Cl)cc2)=C(CN2CCN(c3ccc(C(=O)NS(=O)(=O)c4ccc(N[C@H](CCN5CCN(CCP(=O)(OCOC(=O)C(C)(C)C)OCOC(=O)C(C)(C)C)CC5)CSc5ccccc5)c(S(=O)(=O)C(F)(F)F)c4)cc3)CC2)C1 , respond with its EC50.
> 10 µM

* * *

pKd: −log10 of the molar value.
So I've got a bunch of molecules here, and I need their pKd values.

Please indicate recorded pKd of CCOP(=O)(O)CN1CCN(CC[C@H](CSc2ccccc2)N(c2ccc(S(=O)(=O)NC(=O)c3ccc(N4CCN(CC5=C(c6ccc(Cl)cc6)CCC(C)(C)C5)CC4)cc3)cc2S(=O)(=O)C(F)(F)F)S(C)(=O)=O)CC1 measured with BCL-xL (Homo sapiens, UniProt Q07817).
Sequence (Q07817 whole entry, species assumed): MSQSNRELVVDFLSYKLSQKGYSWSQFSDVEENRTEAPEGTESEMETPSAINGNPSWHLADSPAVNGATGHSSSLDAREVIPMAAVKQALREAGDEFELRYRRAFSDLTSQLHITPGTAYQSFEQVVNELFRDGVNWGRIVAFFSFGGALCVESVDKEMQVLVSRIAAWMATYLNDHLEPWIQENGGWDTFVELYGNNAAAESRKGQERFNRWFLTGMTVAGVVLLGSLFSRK
8.00 to 9.00

Please indicate recorded pKd of CCOP(=O)(CCN1CCN(CC[C@H](CSc2ccccc2)Nc2ccc(S(=O)(=O)NC(=O)c3ccc(N4CCN(CC5=C(c6ccc(Cl)cc6)CCC(C)(C)C5)CC4)cc3)cc2S(=O)(=O)C(F)(F)F)CC1)OCC measured with BCL-xL (Homo sapiens, UniProt Q07817).
> 9.00

Please indicate recorded pKd of CCOP(=O)(O)CCN1CCN(CC[C@H](CSc2ccccc2)Nc2ccc(S(=O)(=O)NC(=O)c3ccc(N4CCN(CC5=C(c6ccc(Cl)cc6)CCC(C)(C)C5)CC4)cc3)cc2S(=O)(=O)C(F)(F)F)CC1 measured with BCL-xL (Homo sapiens, UniProt Q07817).
> 9.00

Please indicate recorded pKd of CC1(C)CCC(c2ccc(Cl)cc2)=C(CN2CCN(c3ccc(C(=O)NS(=O)(=O)c4ccc(N[C@H](CCN5CCC(CP(=O)(O)O)CC5)CSc5ccccc5)c(S(=O)(=O)C(F)(F)F)c4)cc3)CC2)C1 measured with BCL-xL (Homo sapiens, UniProt Q07817).
> 9.00

Please indicate recorded pKd of CC(C)OP(=O)(CCCN1CCN(CC[C@H](CSc2ccccc2)Nc2ccc(S(=O)(=O)NC(=O)c3ccc(N4CCN(CC5=C(c6ccc(Cl)cc6)CCC(C)(C)C5)CC4)cc3)cc2S(=O)(=O)C(F)(F)F)CC1)OC(C)C measured with BCL-xL (Homo sapiens, UniProt Q07817).
> 9.00

Please indicate recorded pKd of CCOP(=O)(CN1CCN(CC[C@H](CSc2ccccc2)Nc2ccc(S(=O)(=O)NC(=O)c3ccc(N4CCN(CC5=C(c6ccc(Cl)cc6)CCC(C)(C)C5)CC4)cc3)cc2S(=O)(=O)C(F)(F)F)CC1)OCOC(=O)OC(C)C (some centres unmarked) measured with BCL-xL (Homo sapiens, UniProt Q07817).
> 9.00

Please indicate recorded pKd of CC1(C)CCC(c2ccc(Cl)cc2)=C(CN2CCN(c3ccc(C(=O)NS(=O)(=O)c4ccc(N[C@H](CCN5CCN(CCCP(=O)(Oc6ccccc6)Oc6ccccc6)CC5)CSc5ccccc5)c(S(=O)(=O)C(F)(F)F)c4)cc3)CC2)C1 measured with BCL-xL (Homo sapiens, UniProt Q07817).
8.00 to 9.00

Please indicate recorded pKd of CCOP(=O)(O)CCN(C)CC[C@H](CSc1ccccc1)Nc1ccc(S(=O)(=O)NC(=O)c2ccc(N3CCN(CC4=C(c5ccc(Cl)cc5)CCC(C)(C)C4)CC3)cc2)cc1S(=O)(=O)C(F)(F)F measured with BCL-xL (Homo sapiens, UniProt Q07817).
> 9.00

Please indicate recorded pKd of COP(=O)(CCCN1CCN(CC[C@H](CSc2ccccc2)Nc2ccc(S(=O)(=O)NC(=O)c3ccc(N4CCN(CC5=C(c6ccc(Cl)cc6)CCC(C)(C)C5)CC4)cc3)cc2S(=O)(=O)C(F)(F)F)CC1)OC measured with BCL-xL (Homo sapiens, UniProt Q07817).
> 9.00

Please indicate recorded pKd of CCOP(=O)(CN1CCN(CC[C@H](C[S+]([O-])c2ccccc2)Nc2ccc(S(=O)(=O)NC(=O)c3ccc(N4CCN(CC5=C(c6ccc(Cl)cc6)CCC(C)(C)C5)CC4)cc3)cc2S(=O)(=O)C(F)(F)F)CC1)OCC (some centres unmarked) measured with BCL-xL (Homo sapiens, UniProt Q07817).
> 9.00

Please indicate recorded pKd of CCOP(=O)(CN1CCN(CC[C@H](CSc2ccccc2)Nc2ccc(S(=O)(=O)NC(=O)c3ccc(N4CCN(CC5=C(c6ccc(Cl)cc6)CCC(C)(C)C5)CC4)cc3)cc2S(=O)(=O)C(F)(F)F)CC1)OCOC(=O)C(C)(C)C (some centres unmarked) measured with BCL-xL (Homo sapiens, UniProt Q07817).
8.00 to 9.00

Please indicate recorded pKd of CCOP(=O)(CN1CCN(CC[C@H](CSc2ccccc2)Nc2ccc(S(=O)(=O)NC(=O)c3ccc(N4CCN(CC5=C(c6ccc(Cl)cc6)CCC(C)(C)C5)CC4)cc3)cc2S(=O)(=O)C(F)(F)F)CC1)OCC measured with BCL-xL (Homo sapiens, UniProt Q07817).
> 9.00

Please indicate recorded pKd of CCOP(=O)(CN1CCN(CC[C@H](CSc2ccccc2)N(c2ccc(S(=O)(=O)NC(=O)c3ccc(N4CCN(CC5=C(c6ccc(Cl)cc6)CCC(C)(C)C5)CC4)cc3)cc2S(=O)(=O)C(F)(F)F)S(C)(=O)=O)CC1)OCC measured with BCL-xL (Homo sapiens, UniProt Q07817).
7.30 to 8.00

Please indicate recorded pKd of CCOP(=O)(O)CC1CCN(CC[C@H](CSc2ccccc2)Nc2ccc(S(=O)(=O)NC(=O)c3ccc(N4CCN(CC5=C(c6ccc(Cl)cc6)CCC(C)(C)C5)CC4)cc3)cc2S(=O)(=O)C(F)(F)F)CC1 measured with BCL-xL (Homo sapiens, UniProt Q07817).
> 9.00

Please indicate recorded pKd of CCOP(=O)(O)CCCN1CCN(CC[C@H](CSc2ccccc2)Nc2ccc(S(=O)(=O)NC(=O)c3ccc(N4CCN(CC5=C(c6ccc(Cl)cc6)CCC(C)(C)C5)CC4)cc3)cc2S(=O)(=O)C(F)(F)F)CC1 measured with BCL-xL (Homo sapiens, UniProt Q07817).
> 9.00

Please indicate recorded pKd of COP(=O)(CN1CCN(CC[C@H](CSc2ccccc2)Nc2ccc(S(=O)(=O)NC(=O)c3ccc(N4CCN(CC5=C(c6ccc(Cl)cc6)CCC(C)(C)C5)CC4)cc3)cc2S(=O)(=O)C(F)(F)F)CC1)OC measured with BCL-xL (Homo sapiens, UniProt Q07817).
> 9.00

Please indicate recorded pKd of CCOP(=O)(CN1CCN(CC[C@H](CSc2ccccc2)Nc2ccc(S(=O)(=O)NC(=O)c3ccc(N4CCN(Cc5ccccc5-c5ccc(Cl)cc5)CC4)cc3)cc2S(=O)(=O)C(F)(F)F)CC1)OCC measured with BCL-xL (Homo sapiens, UniProt Q07817).
> 9.00
